Value source: ChEMBL document CHEMBL2062383

A collection of molecules and their measured MIC
# System: Streptococcus pyogenes
# assayDetails: Antibacterial activity against erythromycin-resistant Streptococcus pyogenes 1104 expressing ermB ribosomal methylase by broth microdilution method
# Format: functional
The reply should be a number in µg/mL, with the unit left off.

The cases that follow already have their MIC on record.
CC[C@H]1OC(=O)[C@@](C)(F)C(=O)[C@H](C)[C@@H](O[C@@H]2O[C@H](C)C[C@H](N(C)C)[C@H]2O)[C@](C)(OCC#Cc2cc(-c3ncccn3)no2)C[C@@H](C)C(=O)[C@H](C)[C@H]2NC(=O)O[C@@]21C
2
CC[C@H]1OC(=O)[C@@](C)(F)C(=O)[C@H](C)[C@@H](O[C@@H]2O[C@H](C)C[C@H](N(C)C)[C@H]2O)[C@](C)(OCC#Cc2cc(-c3cnc(N)nc3)no2)C[C@@H](C)C(=O)[C@H](C)[C@H]2NC(=O)O[C@@]21C
0.06

Now for another entry.
Ask: Supply recorded MIC for CC[C@H]1OC(=O)[C@@](C)(F)C(=O)[C@H](C)[C@@H](O[C@@H]2O[C@H](C)C[C@H](N(C)C)[C@H]2O)[C@](C)(OCC#Cc2cc(-c3cccnn3)no2)C[C@@H](C)C(=O)[C@H](C)[C@H]2NC(=O)O[C@@]21C here.
Result: 1

---

# Test system: Streptococcus pneumoniae
# assayDetails: Antibacterial activity against Streptococcus pneumoniae 210 expressing mefA efflux pump by broth microdilution method
# Type: functional
A collection of compounds and their measured MIC
The reply should be a number in µg/mL, with the unit left off.

CC[C@H]1OC(=O)[C@@](C)(F)C(=O)[C@H](C)[C@@H](O[C@@H]2O[C@H](C)C[C@H](N(C)C)[C@H]2O)[C@](C)(OCC#Cc2cc(-c3cnc(N)nc3)no2)C[C@@H](C)C(=O)[C@H](C)[C@H]2NC(=O)O[C@@]21C
0.03
CC[C@H]1OC(=O)[C@H](C)[C@@H](O[C@H]2C[C@@](C)(OC)[C@@H](O)[C@H](C)O2)[C@H](C)[C@@H](O[C@@H]2O[C@H](C)C[C@H](N(C)C)[C@H]2O)[C@](C)(O)C[C@@H](C)CN(C)[C@H](C)[C@@H](O)[C@]1(C)O [AZITHROMYCIN]
2

Ask: Supply recorded MIC for CC[C@H]1OC(=O)[C@@](C)(F)C(=O)[C@H](C)[C@@H](O[C@@H]2O[C@H](C)C[C@H](N(C)C)[C@H]2O)[C@](C)(OCC#Cc2cc(-c3ncccn3)no2)C[C@@H](C)C(=O)[C@H](C)[C@H]2NC(=O)O[C@@]21C here.
Result: 0.03

Ask: Supply recorded MIC for CC[C@H]1OC(=O)[C@H](C)[C@@H](O[C@H]2C[C@@](C)(OC)[C@@H](O)[C@H](C)O2)[C@H](C)[C@@H](O[C@@H]2O[C@H](C)C[C@H](N(C)C)[C@H]2O)[C@](C)(OC)C[C@@H](C)C(=O)[C@H](C)[C@@H](O)[C@]1(C)O [CLARITHROMYCIN] here.
Result: 2

Ask: Supply recorded MIC for CC[C@H]1OC(=O)[C@@](C)(F)C(=O)[C@H](C)[C@@H](O[C@@H]2O[C@H](C)C[C@H](N(C)C)[C@H]2O)[C@](C)(OCC#Cc2cc(-c3cccnn3)no2)C[C@@H](C)C(=O)[C@H](C)[C@H]2NC(=O)O[C@@]21C here.
Result: 0.03
